The origin of these recorded values is ChEMBL document CHEMBL4477252.

Biological target: Protein-tyrosine kinase 6 (Homo sapiens, UniProt Q13882)
Sequence (Q13882 whole entry): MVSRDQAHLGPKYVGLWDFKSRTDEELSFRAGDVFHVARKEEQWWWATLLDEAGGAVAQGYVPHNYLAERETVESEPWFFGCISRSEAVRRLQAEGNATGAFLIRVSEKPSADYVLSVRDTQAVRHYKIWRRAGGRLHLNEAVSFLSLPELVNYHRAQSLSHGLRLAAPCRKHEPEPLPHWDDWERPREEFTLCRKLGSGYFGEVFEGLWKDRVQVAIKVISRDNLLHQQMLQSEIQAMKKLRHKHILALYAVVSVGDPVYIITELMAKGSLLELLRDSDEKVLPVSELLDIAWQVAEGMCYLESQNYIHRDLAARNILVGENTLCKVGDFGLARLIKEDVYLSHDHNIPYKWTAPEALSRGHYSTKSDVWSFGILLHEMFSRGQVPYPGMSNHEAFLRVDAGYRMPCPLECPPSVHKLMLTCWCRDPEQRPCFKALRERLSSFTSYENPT
Assay: Inhibition of full-length recombinant human His-tagged PTK6 expressed in baculovirus expression system by Z'-LYTE assay
reported-property: IC50 (nM)
Report as a plain number; the unit nM is understood.

Item under review: Cn1cc(-c2cnc3c(-c4csc(C(=O)N[C@@H]5CCCC[C@@H]5N)c4)cnn3c2)cn1 (racemic) . Reported IC50?
390

Item under review: O=C(NCC(F)(F)F)c1cc(-c2cnn3cc(-c4ccc(OCCN5CCCCC5)cc4)cnc23)cs1 . Reported IC50?
1700

* * *

Target: CDK9/cyclin T1 (Homo sapiens, UniProt P50750)
Sequence (O60563 whole entry): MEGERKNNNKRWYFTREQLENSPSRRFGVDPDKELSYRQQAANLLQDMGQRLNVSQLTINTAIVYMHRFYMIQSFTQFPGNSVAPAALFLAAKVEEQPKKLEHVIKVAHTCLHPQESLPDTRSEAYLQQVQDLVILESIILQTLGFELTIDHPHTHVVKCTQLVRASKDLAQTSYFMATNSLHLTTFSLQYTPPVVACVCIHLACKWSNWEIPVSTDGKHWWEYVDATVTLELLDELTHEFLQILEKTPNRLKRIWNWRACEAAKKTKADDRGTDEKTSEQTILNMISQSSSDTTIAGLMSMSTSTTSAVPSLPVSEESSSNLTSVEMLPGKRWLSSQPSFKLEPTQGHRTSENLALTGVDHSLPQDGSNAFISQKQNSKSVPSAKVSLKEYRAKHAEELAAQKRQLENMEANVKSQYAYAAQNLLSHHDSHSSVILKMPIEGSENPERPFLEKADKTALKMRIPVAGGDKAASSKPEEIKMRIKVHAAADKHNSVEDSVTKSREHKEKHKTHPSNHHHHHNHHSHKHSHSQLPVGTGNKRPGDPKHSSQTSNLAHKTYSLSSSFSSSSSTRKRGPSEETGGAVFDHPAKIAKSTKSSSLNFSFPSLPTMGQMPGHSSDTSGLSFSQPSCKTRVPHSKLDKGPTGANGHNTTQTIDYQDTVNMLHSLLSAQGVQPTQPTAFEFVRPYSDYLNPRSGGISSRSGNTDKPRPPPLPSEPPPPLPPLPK
Sequence (P50750 whole entry): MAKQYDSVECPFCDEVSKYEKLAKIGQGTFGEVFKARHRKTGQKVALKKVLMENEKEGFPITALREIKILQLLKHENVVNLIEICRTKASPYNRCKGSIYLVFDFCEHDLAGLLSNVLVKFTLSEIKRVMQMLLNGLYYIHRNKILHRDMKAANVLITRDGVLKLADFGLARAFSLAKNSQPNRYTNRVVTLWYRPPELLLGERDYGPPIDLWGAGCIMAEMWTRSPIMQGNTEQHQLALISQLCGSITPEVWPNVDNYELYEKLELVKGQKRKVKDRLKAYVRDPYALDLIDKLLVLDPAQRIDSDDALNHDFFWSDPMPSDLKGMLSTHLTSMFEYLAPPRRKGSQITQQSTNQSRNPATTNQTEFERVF
Experiment: Inhibition of full-length recombinant human His-tagged CDK9/cyclin T1 expressed in baculovirus expression system by Adapta assay
reported-property: IC50 (nM)
Report as a plain number; the unit nM is understood.

Observed IC50 on CDK9/cyclin T1 (Homo sapiens, UniProt P50750) for Cn1cc(-c2cnc3c(-c4csc(C(=O)NCC(F)(F)F)c4)cnn3c2)cn1 , please.
35

Observed IC50 on CDK9/cyclin T1 (Homo sapiens, UniProt P50750) for Cn1cc(-c2cnc3c(-c4csc(C(=O)N[C@@H]5CCCC[C@@H]5N)c4)cnn3c2)cn1 (racemic) , please.
12

Observed IC50 on CDK9/cyclin T1 (Homo sapiens, UniProt P50750) for Cc1sc(C(=O)N[C@@H]2[C@H](N)CCCC2(F)F)cc1-c1cnn2cc(Cl)cnc12 , please.
240

Observed IC50 on CDK9/cyclin T1 (Homo sapiens, UniProt P50750) for O=C(NCC(F)(F)F)c1cc(-c2cnn3cc(-c4ccc(OCCN5CCCCC5)cc4)cnc23)cs1 , please.
45

* * *

Target: Serine/threonine-protein kinase Chk2 (Homo sapiens, UniProt O96017)
Sequence (O96017 whole entry): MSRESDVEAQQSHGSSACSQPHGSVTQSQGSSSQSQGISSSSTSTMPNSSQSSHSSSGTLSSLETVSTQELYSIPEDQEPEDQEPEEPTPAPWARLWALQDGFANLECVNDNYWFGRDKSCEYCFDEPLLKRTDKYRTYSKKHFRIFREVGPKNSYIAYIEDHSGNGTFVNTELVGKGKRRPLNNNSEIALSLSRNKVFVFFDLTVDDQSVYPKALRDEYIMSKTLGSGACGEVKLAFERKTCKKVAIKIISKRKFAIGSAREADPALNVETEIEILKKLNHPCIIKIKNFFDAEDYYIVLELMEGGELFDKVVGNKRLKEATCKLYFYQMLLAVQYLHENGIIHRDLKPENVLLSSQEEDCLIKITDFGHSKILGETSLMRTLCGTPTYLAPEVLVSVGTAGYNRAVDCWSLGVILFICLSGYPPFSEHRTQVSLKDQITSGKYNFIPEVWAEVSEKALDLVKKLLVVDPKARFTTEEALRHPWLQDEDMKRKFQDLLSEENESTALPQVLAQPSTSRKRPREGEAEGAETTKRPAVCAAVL
Test: Inhibition of full-length recombinant human His-tagged CHEK2 expressed in baculovirus expression system by Z'-LYTE assay
Give measured IC50 for each item. Keep answers brief.
Report as a plain number; the unit nM is understood.

Item under review: Cn1cc(-c2cnc3c(-c4csc(C(=O)N[C@@H]5CCCC[C@@H]5N)c4)cnn3c2)cn1 (racemic) . Reported IC50?
24

Item under review: O=C(NCC(F)(F)F)c1cc(-c2cnn3cc(-c4ccc(OCCN5CCCCC5)cc4)cnc23)cs1 . Reported IC50?
450

Item under review: Cn1cc(-c2cnc3c(-c4csc(C(=O)NCC(F)(F)F)c4)cnn3c2)cn1 . Reported IC50?
420

Item under review: Cc1sc(C(=O)N[C@@H]2[C@H](N)CCCC2(F)F)cc1-c1cnn2cc(Cl)cnc12 . Reported IC50?
390

* * *

Target: Serine/threonine-protein kinase 26 (Homo sapiens)
Sequence (Q9P289 whole entry): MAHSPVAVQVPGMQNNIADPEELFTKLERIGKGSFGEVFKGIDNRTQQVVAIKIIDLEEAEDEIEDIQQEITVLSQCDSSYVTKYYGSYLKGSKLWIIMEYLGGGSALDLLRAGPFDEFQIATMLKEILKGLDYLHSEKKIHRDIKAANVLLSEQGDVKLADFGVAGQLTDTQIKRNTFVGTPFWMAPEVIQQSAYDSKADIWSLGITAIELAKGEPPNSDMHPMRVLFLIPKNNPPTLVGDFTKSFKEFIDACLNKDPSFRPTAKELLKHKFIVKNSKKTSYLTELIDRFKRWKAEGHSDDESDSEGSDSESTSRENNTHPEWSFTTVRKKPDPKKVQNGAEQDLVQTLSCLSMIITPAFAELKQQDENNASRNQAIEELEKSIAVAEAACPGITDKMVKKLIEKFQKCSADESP
Experiment: Inhibition of full-length recombinant human GST-tagged MST4 expressed in baculovirus expression system by Z'-LYTE assay
Give measured pIC50 for each item. Keep answers brief.
Convention used: pIC50 is expressed as -log10 of the molar concentration.

Item under review: Cn1cc(-c2cnc3c(-c4csc(C(=O)N[C@@H]5CCCC[C@@H]5N)c4)cnn3c2)cn1 (racemic) . Reported pIC50?
8.20

Item under review: Cc1sc(C(=O)N[C@@H]2[C@H](N)CCCC2(F)F)cc1-c1cnn2cc(Cl)cnc12 . Reported pIC50?
6.77

Item under review: Cn1cc(-c2cnc3c(-c4csc(C(=O)NCC(F)(F)F)c4)cnn3c2)cn1 . Reported pIC50?
6.54

Item under review: O=C(NCC(F)(F)F)c1cc(-c2cnn3cc(-c4ccc(OCCN5CCCCC5)cc4)cnc23)cs1 . Reported pIC50?
5.96

* * *

Target: Serine/threonine-protein kinase Nek4 (Homo sapiens, UniProt P51957)
Assay: Inhibition of full-length recombinant human GST-tagged NEK4 expressed in baculovirus expression system by Z'-LYTE assay
Give measured IC50 for each item. Keep answers brief.
Report as a plain number; the unit nM is understood.

Observed IC50 on Serine/threonine-protein kinase Nek4 (Homo sapiens, UniProt P51957) for Cn1cc(-c2cnc3c(-c4csc(C(=O)NCC(F)(F)F)c4)cnn3c2)cn1 , please.
240

Observed IC50 on Serine/threonine-protein kinase Nek4 (Homo sapiens, UniProt P51957) for Cc1sc(C(=O)N[C@@H]2[C@H](N)CCCC2(F)F)cc1-c1cnn2cc(Cl)cnc12 , please.
480

Observed IC50 on Serine/threonine-protein kinase Nek4 (Homo sapiens, UniProt P51957) for Cn1cc(-c2cnc3c(-c4csc(C(=O)N[C@@H]5CCCC[C@@H]5N)c4)cnn3c2)cn1 (racemic) , please.
48

Observed IC50 on Serine/threonine-protein kinase Nek4 (Homo sapiens, UniProt P51957) for O=C(NCC(F)(F)F)c1cc(-c2cnn3cc(-c4ccc(OCCN5CCCCC5)cc4)cnc23)cs1 , please.
160

* * *

Molecular target: Dual specificity mitogen-activated protein kinase kinase 6 (Homo sapiens)
Sequence (P52564 whole entry): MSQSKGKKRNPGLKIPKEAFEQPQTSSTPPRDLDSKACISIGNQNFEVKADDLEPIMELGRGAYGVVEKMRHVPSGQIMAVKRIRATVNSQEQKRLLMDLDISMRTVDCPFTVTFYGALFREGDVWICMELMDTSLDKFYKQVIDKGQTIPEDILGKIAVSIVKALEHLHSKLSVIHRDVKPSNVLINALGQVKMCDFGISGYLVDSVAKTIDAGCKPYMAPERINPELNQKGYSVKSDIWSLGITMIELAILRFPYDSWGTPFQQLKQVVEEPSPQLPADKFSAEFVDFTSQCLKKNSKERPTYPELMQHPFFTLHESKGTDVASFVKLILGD
Test: Inhibition of full-length recombinant human His-tagged MAP2K6 expressed in baculovirus expression system by Z'-LYTE assay
reported-property: pIC50
Convention used: pIC50 is expressed as -log10 of the molar concentration.

Item under review: Cc1sc(C(=O)N[C@@H]2[C@H](N)CCCC2(F)F)cc1-c1cnn2cc(Cl)cnc12 . Reported pIC50?
5.48

Item under review: Cn1cc(-c2cnc3c(-c4csc(C(=O)N[C@@H]5CCCC[C@@H]5N)c4)cnn3c2)cn1 (racemic) . Reported pIC50?
6.54

Item under review: Cn1cc(-c2cnc3c(-c4csc(C(=O)NCC(F)(F)F)c4)cnn3c2)cn1 . Reported pIC50?
4.46

Item under review: O=C(NCC(F)(F)F)c1cc(-c2cnn3cc(-c4ccc(OCCN5CCCCC5)cc4)cnc23)cs1 . Reported pIC50?
4.72

* * *

Molecular target: Interleukin-1 receptor-associated kinase 4 (Homo sapiens)
Sequence (Q9NWZ3 whole entry): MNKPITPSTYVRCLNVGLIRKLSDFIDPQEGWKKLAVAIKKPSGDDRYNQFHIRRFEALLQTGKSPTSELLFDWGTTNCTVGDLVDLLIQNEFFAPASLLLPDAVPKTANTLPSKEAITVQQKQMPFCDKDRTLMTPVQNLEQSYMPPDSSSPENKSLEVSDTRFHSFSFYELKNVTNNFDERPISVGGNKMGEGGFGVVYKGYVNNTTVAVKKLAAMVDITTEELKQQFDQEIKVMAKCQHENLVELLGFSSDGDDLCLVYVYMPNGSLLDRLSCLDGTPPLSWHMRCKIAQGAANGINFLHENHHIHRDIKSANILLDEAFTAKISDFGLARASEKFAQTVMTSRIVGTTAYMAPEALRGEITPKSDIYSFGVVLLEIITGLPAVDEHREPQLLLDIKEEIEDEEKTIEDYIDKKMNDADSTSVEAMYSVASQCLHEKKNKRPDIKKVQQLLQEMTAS
Test: Inhibition of full-length recombinant human His-tagged IRAK4 expressed in baculovirus expression system by Z'-LYTE assay
Give measured IC50 for each item. Keep answers brief.
Report as a plain number; the unit µM is understood.

Item under review: Cc1sc(C(=O)N[C@@H]2[C@H](N)CCCC2(F)F)cc1-c1cnn2cc(Cl)cnc12 . Reported IC50?
3

Item under review: O=C(NCC(F)(F)F)c1cc(-c2cnn3cc(-c4ccc(OCCN5CCCCC5)cc4)cnc23)cs1 . Reported IC50?
0.21

Item under review: Cn1cc(-c2cnc3c(-c4csc(C(=O)N[C@@H]5CCCC[C@@H]5N)c4)cnn3c2)cn1 (racemic) . Reported IC50?
0.023

Item under review: Cn1cc(-c2cnc3c(-c4csc(C(=O)NCC(F)(F)F)c4)cnn3c2)cn1 . Reported IC50?
0.064

* * *

Target: Tyrosine-protein kinase JAK1 (Homo sapiens, UniProt P23458)
Experiment: Inhibition of recombinant human GST-tagged cytoplasmic JAK1 (866 to 1154 residues) catalytic domain expressed in baculovirus expression system by Z'-LYTE assay
reported-property: IC50 (µM)
Report as a plain number; the unit µM is understood.

Item under review: Cn1cc(-c2cnc3c(-c4csc(C(=O)NCC(F)(F)F)c4)cnn3c2)cn1 . Reported IC50?
4.2

Item under review: Cn1cc(-c2cnc3c(-c4csc(C(=O)N[C@@H]5CCCC[C@@H]5N)c4)cnn3c2)cn1 (racemic) . Reported IC50?
0.22

Item under review: O=C(NCC(F)(F)F)c1cc(-c2cnn3cc(-c4ccc(OCCN5CCCCC5)cc4)cnc23)cs1 . Reported IC50?
2.3

Item under review: Cc1sc(C(=O)N[C@@H]2[C@H](N)CCCC2(F)F)cc1-c1cnn2cc(Cl)cnc12 . Reported IC50?
4.3

* * *

Give measured pIC50 for each item. Keep answers brief.
Biological target: UniProt Q96SB4
Test: Inhibition of full-length recombinant human His-tagged SRPK1 expressed in baculovirus expression system by Z'-LYTE assay
Convention used: pIC50 is expressed as -log10 of the molar concentration.

Item under review: Cc1sc(C(=O)N[C@@H]2[C@H](N)CCCC2(F)F)cc1-c1cnn2cc(Cl)cnc12 . Reported pIC50?
4.92

Item under review: Cn1cc(-c2cnc3c(-c4csc(C(=O)NCC(F)(F)F)c4)cnn3c2)cn1 . Reported pIC50?
4.55

Item under review: Cn1cc(-c2cnc3c(-c4csc(C(=O)N[C@@H]5CCCC[C@@H]5N)c4)cnn3c2)cn1 (racemic) . Reported pIC50?
6.85

* * *

Test: Clearance in Beagle dog at 0.5 mL/kg, iv administered through catheter measured after 24 hrs by LC-MS/MS analysis
Assay type: ADME, organism-based, Canis lupus familiaris
Conditions: in vivo
reported-property: clearance (mL/min/kg)
Report as a plain number; the unit mL/min/kg is understood.

Item under review: Cc1sc(C(=O)N[C@@H]2[C@H](N)CCCC2(F)F)cc1-c1cnn2cc(Cl)cnc12 . Reported clearance?
27

* * *

Target: Angiopoietin-1 receptor (Homo sapiens)
Sequence (Q02763 whole entry): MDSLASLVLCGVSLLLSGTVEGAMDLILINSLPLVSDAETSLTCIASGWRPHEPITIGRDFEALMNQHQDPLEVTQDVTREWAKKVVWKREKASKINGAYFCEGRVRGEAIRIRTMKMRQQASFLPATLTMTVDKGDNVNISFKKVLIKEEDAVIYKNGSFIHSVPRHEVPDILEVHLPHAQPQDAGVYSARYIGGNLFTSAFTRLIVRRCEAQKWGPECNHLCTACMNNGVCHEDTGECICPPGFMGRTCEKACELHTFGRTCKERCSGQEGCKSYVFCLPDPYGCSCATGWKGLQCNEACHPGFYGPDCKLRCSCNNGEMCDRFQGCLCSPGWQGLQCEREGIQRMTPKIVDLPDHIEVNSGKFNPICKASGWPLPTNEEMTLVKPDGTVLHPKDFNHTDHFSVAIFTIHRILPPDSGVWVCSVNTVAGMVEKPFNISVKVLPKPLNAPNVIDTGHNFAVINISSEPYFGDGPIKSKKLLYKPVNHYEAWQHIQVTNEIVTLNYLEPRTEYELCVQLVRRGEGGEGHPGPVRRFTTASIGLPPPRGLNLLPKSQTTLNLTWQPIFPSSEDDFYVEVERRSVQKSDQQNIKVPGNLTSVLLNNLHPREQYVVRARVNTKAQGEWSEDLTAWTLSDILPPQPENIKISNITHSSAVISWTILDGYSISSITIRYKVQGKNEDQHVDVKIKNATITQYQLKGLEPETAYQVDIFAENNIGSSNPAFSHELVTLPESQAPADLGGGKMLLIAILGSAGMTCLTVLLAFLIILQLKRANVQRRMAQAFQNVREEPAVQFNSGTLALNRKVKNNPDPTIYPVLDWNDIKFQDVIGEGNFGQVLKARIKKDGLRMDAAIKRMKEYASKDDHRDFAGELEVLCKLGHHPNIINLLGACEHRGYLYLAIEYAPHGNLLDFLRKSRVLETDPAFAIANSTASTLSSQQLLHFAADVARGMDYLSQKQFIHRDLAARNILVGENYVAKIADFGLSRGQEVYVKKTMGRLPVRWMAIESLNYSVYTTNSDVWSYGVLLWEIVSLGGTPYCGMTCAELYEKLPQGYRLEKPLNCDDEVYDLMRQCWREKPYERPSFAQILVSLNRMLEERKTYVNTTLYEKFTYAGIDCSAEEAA
Test: Inhibition of recombinant human GST-tagged cytoplasmic TEK expressed in baculovirus expression system by Z'-LYTE assay
Give measured IC50 for each item. Keep answers brief.
Report as a plain number; the unit µM is understood.

Item under review: Cn1cc(-c2cnc3c(-c4csc(C(=O)N[C@@H]5CCCC[C@@H]5N)c4)cnn3c2)cn1 (racemic) . Reported IC50?
0.66

Item under review: Cn1cc(-c2cnc3c(-c4csc(C(=O)NCC(F)(F)F)c4)cnn3c2)cn1 . Reported IC50?
4.7

Item under review: O=C(NCC(F)(F)F)c1cc(-c2cnn3cc(-c4ccc(OCCN5CCCCC5)cc4)cnc23)cs1 . Reported IC50?
4.7
